I'd be grateful if you could share measured IC50 for these entries.
- System: SARS-CoV-2
- ASSAY TEXT: microbe, parasite or virus in culture
- Type: cell-based
- SETUP CONDITIONS: Severe acute respiratory syndrome coronavirus 2, A549-ACE2, 24 h, A549-ACE2 cells; […]; 24 h; read-out: IC50, SARS-CoV-2 immunostaining signal
Provide only the numeric value, understood in µM.

Inquiry: For CNCc1ccc(-c2cc(-c3nc(-c4ccc(S(=O)(=O)C(C)C)cc4)cnc3N)on2)cc1 [Berzosertib] , what is its reported IC50?
Reply text: 0.22

Inquiry: Form field: reported IC50 of CCC(CC)COC(=O)[C@H](C)N[P@](=O)(OC[C@H]1O[C@@](C#N)(c2ccc3c(N)ncnn23)[C@H](O)[C@@H]1O)Oc1ccccc1 [Remdesivir]
Reply text: 0.2
